// provenance: PubChem BioAssay

# Tested on: XIP peptide (Xip251-270)
# experiment: small-molecule binders of XIP peptide, primary screen, biochemical, small-molecule microarray, fluorescence 635/667 nm, 0.5 µg/mL protein (AID 1183)
# applied.conditions: small-molecule microarray binding, fluorescence 635 nm; higher = more signal
quantity.name: composite z-score

{"columns": ["compound", "recorded.result"],
 "data": [
  ["C=C(CCCC)C(=O)CC[C@H](OC(=O)c1cccnc1)c1cccc(OCCO)c1", 0.143],
  ["O=C1O[C@@H](c2ccccc2)[C@@H](c2ccccc2)N2[C@@H](c3ccc(OCCO)cc3)[C@]3(C(=O)Nc4ccc(C#CC5=CCCCC5)cc43)[C@@H](C(=O)O)[C@H]12", 0.504],
  ["C=CC[C@@]1(C(=O)O)N=C(c2ccc(OCCCO)cc2)O[C@@H]1c1ccccc1N=[N+]=[N-]", 0.823],
  ["COCC1=C2[C@@H](CCc3ccccc3)OB(O)C[C@@H]2[C@@H]2C(=O)N(Cc3ccccc3)C(=O)[C@@H]2C1", -0.538],
  ["CCOC(=O)C1=C[C@@H](CC)N(S(=O)(=O)c2ccc(C)cc2)[C@H]1c1ccccc1", 0.208],
  ["C=CC[C@@]1(C(=O)N2CCOCC2)N=C(c2ccc(OCCCO)cc2)O[C@@H]1c1ccccc1N=[N+]=[N-]", 0.598],
  ["COc1ccc([Si](C)(C)[C@H]2[C@H](CC(=O)N(CCO)Cc3ccccc3)O[C@@]3(C(=O)N(Cc4cccc(N5CCC5=O)c4)c4ccccc43)[C@@H]2C)cc1", 0.281],
  ["C=CCC(OC(C)=O)[C@@H]1[C@@H](N(Cc2ccc(-c3cccc(C(F)(F)F)c3)o2)C(=O)c2ccc(C)cc2)c2cc(OCCCO)ccc2N1C(=O)c1ccc(-c2ccccc2)cc1 (stereo not given in full)", 0.0783],
  ["Cc1ccc(S[C@]2(C(=O)NCC(C)C)CC(=O)N(Cc3ccccc3)[C@@H]2c2ccc(CO)cc2I)cc1", 0.292],
  ["COc1ccc([Si](C)(C)[C@@H]2[C@@H](CC(=O)N3CCC[C@H]3CO)O[C@]3(C(=O)N(C)c4c(Br)cc(C)cc43)[C@H]2C)cc1", 0.507],
  ["COc1ccc(C#Cc2ccc3c(c2)[C@]2(C(=O)N3)[C@H](C(=O)NC[C@H](O)c3ccccc3)[C@H]3C(=O)O[C@H](c4ccccc4)[C@H](c4ccccc4)N3[C@@H]2c2ccccc2OCCO)cc1", 0.881],
  ["COc1ccc(CCNC(=O)[C@@H]2c3ccccc3C(=O)N(Cc3ccc(OC(F)(F)F)cc3)[C@H]2c2ccc(CO)cc2)cc1", 0.486],
  ["C=C(C(=O)CC[C@H](OC(C)=O)c1ccc(OCCO)cc1)C(C)C", 0.601],
  ["CC(=O)Nc1cc(Br)ccc1C(=O)O", 0.53],
  ["COc1ccc(C(=O)Nc2cccc(CN3C(=O)[C@@]4(O[C@@H](CCn5cc(CCO)nn5)[C@H]([Si](C)(C)c5ccc(OC)cc5)[C@H]4C)c4ccccc43)c2)cc1", 0.393]
]}

* * *

# experiment: adipocyte viability effects, profiling panel, cell-based, 3T3-L1 adipocytes, calcein-AM fluorescence, 48 h, basal (AID 1163)
# applied.conditions: 3T3-L1 adipocytes viability, higher = more signal
quantity.name: z-score

{"columns": ["compound", "quantity.name", "recorded.result"],
 "data": [
  ["CCOC(=O)C1=CC[C@@H](c2ccccc2Cl)N(S(=O)(=O)c2ccc(C)cc2)C1", "z-score", -0.529],
  ["CC(C)C(=C=CC[C@H](O)c1cccc(OCCO)c1)C[C@H](O)COCc1ccccc1", "z-score", -0.27],
  ["C=CCNC(=O)[C@@H]1[C@H]2C(=O)O[C@H](c3ccccc3)[C@H](c3ccccc3)N2[C@H](c2ccc(OCCO)cc2)[C@@]12C(=O)Nc1ccccc12", "z-score", 1.59],
  ["COC(=O)c1ccc(C(O)C2C=CC3C(=O)N(c4ccccc4)C(=O)C3N2Nc2ccc(C#N)cc2)o1 (centres undefined)", "z-score", 0.0728],
  ["O=C(CS)NCCCCCCNC(=O)[C@H]1C[C@H]2C(=O)NCC(=O)N2[C@H]1c1ccc(O)cc1", "z-score", 0.277],
  ["COCCOC(=O)N1C(=O)[C@@]2(c3ccccc31)[C@H](c1ccc(O)cc1)N1[C@H](c3ccccc3)[C@H](c3ccccc3)OC(=O)[C@H]1[C@@H]2C(=O)N1CCc2cc(OC)c(OC)cc2C1", "z-score", 0.748],
  ["COC(=O)c1ccc(C(O)C2C=CC3C(=O)N(C)C(=O)C3N2NC(=O)OC(C)(C)C)o1 (centres undefined)", "z-score", -0.425],
  ["COC(=O)[C@@]1(Cc2ccc(OC)cc2)[C@H]2c3cc(C(=O)N4CCCC4)n(Cc4ccccn4)c3C[C@H]2CN1C(=O)c1ccccc1", "z-score", 0.588],
  ["CS(=O)(=O)CCOC(=O)C1=CC(c2ccc(CO)cc2)=CC(C2CC2)N(Cc2cc3c(cc2Br)OCO3)C=C1C(=O)OCCS(C)(=O)=O (centres undefined)", "z-score", -0.14],
  ["CC(C)c1ccc(NN2C(C(O)c3ccc(N(C)C)cc3)C=CC3C(=O)N(c4ccccc4)C(=O)C32)cc1 (centres undefined)", "z-score", -1.62],
  ["COc1ccc(C(=O)Nc2cccc(CN3C(=O)[C@@]4(O[C@@H](CCn5cc(CCO)nn5)[C@H]([Si](C)(C)c5ccc(OC)cc5)[C@H]4C)c4ccccc43)c2)cc1", "z-score", -0.599],
  ["O=C1c2ccccc2[C@@]2(Cc3ccccc3N(Cc3ccccc3)C2=O)[C@H](c2ccc(CO)cc2)N1C1CCCCC1", "z-score", -0.752],
  ["O=C1N(CCS(=O)(=O)c2ccccc2)Cc2ccccc2C[C@]12N=C(c1ccc(OCCCO)cc1)O[C@@H]2c1ccccc1", "z-score", 1.36],
  ["C=CC[C@]1(C(=O)N2CCOCC2)N=C(c2ccc(OCCCO)cc2)O[C@H]1c1ccccc1", "z-score", 0.117],
  ["COC(=O)[C@@]1(Cc2ccccc2)[C@H]2c3cc(C(=O)N(C)C)n(Cc4cc(C)n(C)n4)c3C[C@H]2CN1C(=O)c1ccccc1", "z-score", 0.461],
  ["CCOC(=O)C1=CC[C@@H](c2ccccc2)N(S(=O)(=O)c2ccc(C)cc2)[C@H]1C(=O)OCC", "z-score", -0.467],
  ["CC(C)C[C@@H]1NC(=O)[C@H]2C[C@@H](C(=O)NCCCCCCNC(=O)CS)[C@@H](c3cccc(OCCO)c3)N2C1=O", "z-score", 0.466],
  ["CCCNC(=O)[C@@]1(c2ccc([N+](=O)[O-])cc2)CC(=O)N(CC23CC4CC(CC(C4)C2)C3)[C@@H]1c1ccc(CO)cc1", "z-score", -0.35],
  ["[N-]=[N+]=NCc1ccccc1[C@H]1OC(c2ccc(OCCCO)cc2)=N[C@@]1(CCS(=O)(=O)c1ccccc1)C(=O)N1CCOCC1", "z-score", 0.831],
  ["COc1ccc(C#Cc2ccc3c(c2)[C@]2(C(=O)N3)[C@H](C(=O)NC[C@H](O)c3ccccc3)[C@H]3C(=O)O[C@H](c4ccccc4)[C@H](c4ccccc4)N3[C@@H]2c2ccccc2OCCO)cc1", "z-score", 0.0393],
  ["CCCC[C@@H]1C[C@H]1[C@@H](NC(=O)c1ccc(-c2ccccc2)cc1)c1ccc(-c2ccccc2)cc1", "z-score", 0.441],
  ["CCOC(=O)C[C@H]1[C@H](OC(=O)c2ccc(-c3ccccc3)cc2)[C@@H](NC(=O)Cc2ccc(OC)cc2)c2cc(OCCCO)ccc2N1C(=O)c1ccc2ccccc2n1", "z-score", -0.357],
  ["Cc1ccccc1C(O)C1C=CC2C(=O)N(C)C(=O)C2N1N1CCCCC1 (centres undefined)", "z-score", -1.18],
  ["Cc1cc(C)c(C(O)C2C=CC3C(=O)N(C)C(=O)C3N2Nc2ccccc2)c(C)c1 (centres undefined)", "z-score", -0.904],
  ["O=C1O[C@H](c2ccccc2)[C@H](c2ccccc2)N2[C@H]1[C@@H](C(=O)N1CCN(c3ncccn3)CC1)[C@]1(C(=O)Nc3ccccc31)[C@H]2c1ccc(OCCO)cc1", "z-score", 1.35],
  ["CC(C)N1CC=CC23O[C@@H]4C=CCOC(=O)[C@@H]4[C@H]2C(=O)N(CCO)[C@@H]3C1=O (some centres undefined)", "z-score", 0.253],
  ["O=C1C2C=CC(C(O)c3ccc(-c4ccccc4)s3)N(n3cnnc3)C2C(=O)N1Cc1ccccc1 (centres undefined)", "z-score", -0.293],
  ["CC(C)C(O)C1C=CC2C(=O)N(c3ccccc3)C(=O)C2N1Nc1ccc(C#N)cc1 (centres undefined)", "z-score", -0.289],
  ["O=C1O[C@H](c2ccccc2)[C@H](c2ccccc2)N2[C@H]1[C@@H](C(=O)O)[C@]1(C(=O)Nc3ccc(C#CC4(O)CCCCCC4)cc31)[C@H]2c1ccc(OCCO)cc1", "z-score", 0.287]
]}
